# Tgt: human Ang-2 H375Q (human) (UniProt O15123)
# Sequence (O15123 19-496, stated change not applied): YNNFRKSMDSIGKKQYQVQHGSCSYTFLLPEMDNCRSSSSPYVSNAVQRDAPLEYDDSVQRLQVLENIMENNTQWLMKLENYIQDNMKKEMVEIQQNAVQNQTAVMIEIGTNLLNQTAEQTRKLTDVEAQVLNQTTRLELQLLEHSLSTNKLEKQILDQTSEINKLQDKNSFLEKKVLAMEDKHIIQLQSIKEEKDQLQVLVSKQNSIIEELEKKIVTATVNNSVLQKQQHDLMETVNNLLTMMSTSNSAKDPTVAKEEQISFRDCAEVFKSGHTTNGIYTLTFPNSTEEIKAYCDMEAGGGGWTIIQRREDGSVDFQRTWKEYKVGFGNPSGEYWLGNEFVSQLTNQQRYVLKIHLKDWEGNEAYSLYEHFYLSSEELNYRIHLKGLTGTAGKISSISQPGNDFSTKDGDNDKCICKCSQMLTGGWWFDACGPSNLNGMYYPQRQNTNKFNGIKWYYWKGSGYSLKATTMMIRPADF
# Experiment notes: ELISA
Measured parameter: percent binding compared to human Ang-2 (%)
Please state the figure in %; there is no need to write the unit.

Record excerpt, results attached:
Binder | Experimental result
mAb 3.28.1 (antibody, part only; not given: light chain, V domains shown, part only) VH: EVQLVESGGGLVQPGGSLRLSCAASGFTFSSSWMSWVRQAPGKGLEWVANIKQDGSDKYYVDSVKGRFTISRDNAKNSLYLQMNSLRAEDTAVYYCVRDKGSGWFDYWGQGTLVTVSSA | 100
mAb 6.3.1 (antibody, V domains shown) VH: QVQLVQSGAEVKKPGASVKVSCKASGYTFTGYFMHWVPQAPGQGLEWMGWINPNSGGTNYAQNFQGRVTMTRDTSISTAYMELSRLRSDDTPVYYCARDPWQNWNSYFDYWGQGTLVTVSS VL: DIQMTQSPSSLSASVGDRVTITCRASQSIRSYLNWYQQKPGKAPKVLIYAASSLQSGVPSRFSGSGSGTDFTLTISSLQPEDFATYYCQQSYSTLCSFGQGTKLEIKR | 100
mAb 5.86.1 (antibody, V domains shown) VH: QVQLVQSGAEVKKPGASVKVSCKASGYTFTGYHMYWVRQAPGQGLEWLGWINPNSGGTNYAQKFQGRVTMTRDTSISTAYMELSRLRSDDTAVYYCVRDQGIAAAGPFDYWCQGTLVTVSS VL: DIRMTQSPSSLSASVGDRVTITCRASQRISTYLNWYQQKPGKAPKFLIYAASSLQSGVPSRFSGSGSGTDFTLTISSLQPEDFATYYCQQSYTTPFTFGPGTKVDIKR | 100

Note: attention shifts to another entry.
Problem: Need percent binding compared to human Ang-2 of mAb 5.28.1 (antibody, V domains shown) VH: EVQLVESGGIVVQPGGSLRLSCAASGFTFDDYTMHWVRQTPGKGLEWVSLISWDGGSTYYADSVKGRFTISRDNSKNSLYLQMNSLRTEDTALYYCAKDIDIAVAGTGFDHWGQGTLVTVSS VL: EIVMTQSPATLSVSPGERATLSCRASQSVTSNLAWYQQKPGQAPRLLIYGALIRATGIPARFSGSGSGTEFTLTISSLQSEDFAVYYCQQYNNWPFTFGPGTKVDIKR , thanks.
Result: 100
